B1: EEHEE_rd4_0469 (parent)
chain: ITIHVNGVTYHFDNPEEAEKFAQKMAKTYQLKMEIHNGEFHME

Variants of: B1
experimental.protocol: folding stability dG (cDNA display proteolysis); higher = more stable
recorded.conditions: PBS, room temperature
measured.attribute: folding stability dG

Answered cases to consult:
E16W 1.16 kcal/mol
M25K -0.083 kcal/mol
M42F 1.24 kcal/mol
E34P 0.209 kcal/mol

Would you mind giving folding stability dG for every variant in the list below?
1. A22V
2. H4V

["1.4 kcal/mol", "0.899 kcal/mol"]

Taken from the MegaScale stability set (Tsuboyama et al. 2023).
